# protocol-description: soluble on expression in E. coli; label from the status in PepcDB or PDB records
observation-type: soluble on expression in E. coli

[[record]]
input_sequence = "MAHHHHHHMGFWVFDRVADGFLFRGRRQLSRLHQRNAMLDANGMPLTGDLAAEATTWRSQHAFSGRCGLSVKRSPEPHDNRDEARRNGGGDVPHPEKMLPSYECIISRSPNDYRAWAVDFHLQSTSEDPHVLLSVAPYYAPLQSNFVEGGRSWHPPTTEEQEMYDKRMLETPLIWEEPMTLSLDCTNSGMFLWSEEWKIFGEKIADNCFSRRSQSRGGDDSVDQMGGVSGVREGPYEAFVRLSWRMMSAGENDMYGGEKRSLSDASVRNIIVGPCQGEMTVFLRTSSSDQEEGDVSVPRQINGTGNVGAHGGESVSSGVQVWKRAGGRAVLGDDIPNEIYFTPYVTLMDAGDEAILL"
result = "soluble"

[[record]]
input_sequence = "MRNIAEAYFQNMVETATPLEQIILLYDKAIECLERAIEIYDQVNELEKRKEFVENIDRVYDIISALKSFLDHEKGKEIAKNLDTIYTIILNTLVKVDKTKEELQKILEILKDLREAWEEVKKKVHHHHHH"
result = "soluble"

[[record]]
input_sequence = "MGRIKQMTPNVMRLLKACFVEQIPDEVCDEFHLKKDTEHMILITKDGGMPISKIKPLSDSQVLSVLSQILLSLYIGKRELQFSHNDLNPGNLLISETKKKSISYKKDGKSIKIKSHGRFLTLIDLQKSTFDEKEDKGLDCWKLNSRVRDQFLPLVKEDTKKILAKVAEEIEKTTILDWKLPGMLPIQ"
result = "not soluble"

[[record]]
input_sequence = "DAETFHKDELDLAYDRISQQFDTDMGGMNKAPKFPMPSIYLYLLRDYALTGRQGSLQHVELTLDKMAMGGIYDTIGGGFARYSVDGAWFAPHFEKMLYDNGQLLSLYSEAYTVTKKPLYKEVIEETYTWLKREMLSPEGGFYSALDADSEGVEGKFYCWQYEELAQLIQEDFALFCAYYAITENGNWEHGMNILYKRMSDEAFAAAHSISAEALRESVSRWKNILFSERDPREHPGLDDKILASWNGIMLKGLCDAYRILGDAAILNTALMNAEFILTKLYDGKTLFHSYKNKKATIPGFLEDYTHVIDGYLALYEVSLDEQWLRQAITLVNHVIDHFYDDDEGLFFYTSRTSEKLIARKKEIFD"
result = "not soluble"

[[record]]
input_sequence = "MTHELISLPYAVDALAPVISKETVEFHHGKHLKTYVDNLNKLIIGTEFENADLNTIVQKSEGGIFNNAGQTLNHNLYFTQFRPGKGGAPKGKLGEAIDKQFGSFEKFKEEFNTAGTTLFGSGWVWLASDANGKLSIEKEPNAGNPVRKGLNPLLGFDVWEHAYYLTYQNRRADHLKDLWSIVDWDIVESRY"
result = "soluble"

[[record]]
input_sequence = "MGSDKIHHHHHHVRKFKIPNMGALLAFEAAARHESFTHAARELFLTESAVSRQINTLESNLGVRLFVRVKQRVMLTRAGKVYSAQVRRSLEQLDRDTLSIIAHGSGGGYLELAVLPTFASQWLIPRLAAFNAQYPDVRVNMGVRTGTFPFAETHFEAAIHYGKPTWPGTSADFLFSEEVVPVCAASLLKRPVQSAADLLDYPLVHSTTRPDGWAAWFANMGIDDNRTMQGVRYELHTMLISAAAAGLGIALVPRFFVDAQLEQLGLVIPLDAPVVADSAYYLVYPTELSHGKPLASFREWLLREAAAYSAVNPELGGPRDMD"
result = "not soluble"

[[record]]
input_sequence = "MKTEKEEAEEEPFVIRPYLKSELAHKYNPHLPLIYAMQKLRGWIRNNKELYDAMYSGGEGKNDHAYSSRQVRLIVKFLDEP"
result = "not soluble"

[[record]]
input_sequence = "MATLTAKNLAKAYKGRRVVEDVSLTVNSGEIVGLLGPNGAGKTTTFYMVVGIVPRDAGNIIIDDDDISLLPLHARARRGIGYLPQEASIFRRLSVYDNLMAVLQIRDDLSAEQREDRANELMEEFHIEHLRDSMGQSLSGGERRRVEIARALAANPKFILLDEPFAGVDPISVIDIKRIIEHLRDSGLGVLITDHNVRETLAVCERAYIVSQGHLIAHGTPTEILQDEHVKRVYLGEDFRL"
result = "soluble"

[[record]]
input_sequence = "MADSPNRLNRAKIDSTTMKDPRVLNNLKLRELLLPKFTSLWEIQTEVTVDNRTILLTWMHLLCESFELDKSVFPLSVSILDRYLCKKQGTKKTLQKIGAACVLIGSKIRTVKPMTVSKLTYLSCDCFTNLELINQEKDILEALKWDTEAVLATDFLIPLCNALKIPEDLWPQLYEAASTTICKALIQPNIALLSPGLICAGGLLTTIETDNTNCRPWTCYLEDLSSILNFSTNTVRTVKDQVSEAFSLYDLEIL"
result = "soluble"

[[record]]
input_sequence = "IGQVDFGIAGNFSYNKNEILDLGGGDPNKYLDATDGYSQRNKVGEAMNSYYIYRADGFFNSQEEADAYTAKYGNPFGKTFKAGDLRYVDTNKDGKLTADDREYCGSSDPKIIYGFNINAGWKGIDLSLMFNGAAGVKRLFDGYEVYGNFSGDAAHPATIWRDAWTPDNHDASMPRIFYDTNSASSSRSVQSDFWLQDTSYLRLKNLQLGYTLPKGWLNSVGVENIRIYYSVENLLTFDKMKINIDPESTSQRLSSYPLLRTHAFGVNVTF"
result = "not soluble"

[[record]]
input_sequence = "AYTTFSQTKNDQLKEPMFFGQPVNVARYDQQKYDIFEKLIEKQLSFFWRPEEVDVSRDRIDYQALPEHEKHIFISNLKYQTLLDSIQGRSPNVALLPLISIPELETWVETWAFSETIHSRSFTHIIRNIVNDPSVVFDDIVTNEQIQKRAEGISSYYDELIEMTSYWHLLGEGTHTVNGKTVTVSLRELKKKLYLCLMSVNALEAIRAYVSFACSFAFAERELMEGNAKIIRLIARDEALHLTGTQHMLNLLRSGADDPEMAEIAEECKQECYDLFVQAAQQEKDWADYLFRDGSMIGLNKDILCQYVEYITNIRMQAVGLDLPFQTRSNPIPWINTWLVSDNVQVAPQEVEVSSYLVGQIDSEVDTDDLSNFQL"
result = "soluble"

[[record]]
input_sequence = "MGHHHHHHSHMEELLPDGQIWANMDPEERMLAAATAFTHICAGQGEGDVRREAQSIQYDPYSKASVAPGKRPALPVQLQYPHVESNVPSETVSEASQRLRKPVMKRKVLRRKPDGEVLVTDESIISESESGTENDQDLWDLRQRLMNVQFQEDKESSFDVSQKFNLPHEYQGISQDQLICSLQREGMGSPAYEQDLIVASRPKSFILPKLDQLSRNRGKTDRVARYFEYKRDWDSIRLPGEDHRKELRWGVREQMLCRAEPQSKPQHIYVPNNYLVPTEKKRSALRWGVRCDLANGVIPRKLPFPLSPS"
result = "not soluble"

